Origin of values: ChEMBL document CHEMBL1151877

Target: Human immunodeficiency virus type 1 integrase (Human immunodeficiency virus 1, UniProt Q7ZJM1)
Sequence (Q7ZJM1 whole entry): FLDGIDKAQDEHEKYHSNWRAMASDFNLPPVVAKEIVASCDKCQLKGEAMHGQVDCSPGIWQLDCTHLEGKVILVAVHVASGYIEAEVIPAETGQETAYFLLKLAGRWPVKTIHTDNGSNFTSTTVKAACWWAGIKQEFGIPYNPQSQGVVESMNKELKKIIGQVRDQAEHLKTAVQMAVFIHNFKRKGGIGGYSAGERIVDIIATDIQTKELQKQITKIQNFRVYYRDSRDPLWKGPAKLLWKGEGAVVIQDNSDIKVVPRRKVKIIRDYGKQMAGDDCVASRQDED
Assay: Inhibition of HIV1 integrase 3'-processing activity in presence of magnesium
Labelling field: enter fulfilled if recorded IC50 is less than 40 µM. Enter not fulfilled if it equals or exceeds that cut-off.

O=C1c2ccc(O)c(O)c2C(=O)N1Cc1cc(F)ccc1F :: not fulfilled

## Task Please state whether IC50 is below 40 µM for `O=C1c2ccc(O)c(O)c2C(=O)N1Cc1cccc(Br)c1`
## Result fulfilled

## Task Please state whether IC50 is below 40 µM for `O=C1c2ccc(O)c(O)c2C(=O)N1Cc1ccc(F)cc1Cl`
## Result not fulfilled

## Task Please state whether IC50 is below 40 µM for `O=C1c2ccc(O)c(O)c2C(=O)N1Cc1ccc(F)cc1`
## Result fulfilled

## Task Please state whether IC50 is below 40 µM for `O=C1c2ccc(O)c(O)c2C(=O)N1Cc1ccc(Cl)c(Cl)c1`
## Result fulfilled

## Task Please state whether IC50 is below 40 µM for `O=C1c2ccc(O)c(O)c2C(=O)N1Cc1ccccc1F`
## Result not fulfilled

## Task Please state whether IC50 is below 40 µM for `O=C1c2ccc(O)c(O)c2C(=O)N1Cc1cc(F)c(F)c(F)c1`
## Result fulfilled
